# credit: the Human Domainome abundance scans (Beltran et al. 2025)

B1: DnaJ homolog subfamily C member 2, residues 451 to 503; numbered along this chain, Q99543 (parent)
chain: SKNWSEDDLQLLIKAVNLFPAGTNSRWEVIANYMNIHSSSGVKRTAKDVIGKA

Variants of: B1
method.summary: abundance fitness (aPCA) (normalised: wild type 0, dead -1); higher = more abundant; growth selection in yeast, the domain comes from the species named
reported.conditions: Homo sapiens
Class field: derived from abundance fitness; ranges lower segment: < -0.5; middle segment: ≥ -0.5 and < -0.02; upper segment: ≥ -0.02

These solved cases illustrate the format of a correct answer.
{"changes": "D7P", "assigned.label": "middle segment"}
{"changes": "I30Y", "assigned.label": "lower segment"}
{"changes": "L18D", "assigned.label": "middle segment"}
{"changes": "N3R", "assigned.label": "middle segment"}
{"changes": "N35T", "assigned.label": "middle segment"}

Each variant maps to one class by abundance fitness. Which class for P20C ?
lower segment

Each variant maps to one class by abundance fitness. Which class for V49K ?
lower segment

Each variant maps to one class by abundance fitness. Which class for L12P ?
lower segment

Each variant maps to one class by abundance fitness. Which class for N32D ?
upper segment
